Target: SARS-CoV-2 prefusion stabilized trimer protein (WIV02 isolate spike protein) (UniProt P0DTC2 14-1213)
Experiment: ELISA
Readout Label: pEC50
Convention used: pEC50 is expressed as -log10 of the molar concentration.

4-A15-A (antibody, V domains shown) VH: QVQLQQSGAELVKPGASVKISCKASGNAFSSYWMNWVKQRPGKGLEWIGQIYPGDGDTNFNGRFKGKATLTADISSTTAYMLLSSLTSEDSAVYFCASGGYGSSYERDFDYWGQGTTLTVSS VL: DIQMNQSPSSLSASLGDTITITCHASQNINVWLSWYQQKPGNIPKLLIYKASNLHTGVPSRFSGSGSGTGFTLTISSLQPEDIATYYCQQGHSYPLTFGGGTKLEIK = 9.47

Next item in the queue.
[ask] Query: pEC50; subject: 3-E13-A (antibody, V domains shown) VH: EVQLQQSGPELVKPGASVKMSCKASGYTFTDYNIHWVKQSHGKSLEWIGYINPNNGGTDYNQKFQGKATLTVNKSSSTAYMELRSLTSEDFAVYYCARGGFYGNYGAYYGMDFWGQGTSVTVSS VL: DIQMTQSPASLSASVGETVTITCRTSENIYSHLAWYQQTQGKSPQLLVYNAKTLAEGVPSRFSGSGSGTHFSLKINSLQPEDFGSYYCQHHYGIPPEFGGGTKLEIK
[reply] 10.10
